System: T1, recombinant human IL-23R/Fc chimera (R&D Systems) (human, UniProt Q5VWK5 24-353)
T1 construct: bought; also called human IL-23R/Fc fusion protein; rhIL23RFc
T1 sequence (looked up): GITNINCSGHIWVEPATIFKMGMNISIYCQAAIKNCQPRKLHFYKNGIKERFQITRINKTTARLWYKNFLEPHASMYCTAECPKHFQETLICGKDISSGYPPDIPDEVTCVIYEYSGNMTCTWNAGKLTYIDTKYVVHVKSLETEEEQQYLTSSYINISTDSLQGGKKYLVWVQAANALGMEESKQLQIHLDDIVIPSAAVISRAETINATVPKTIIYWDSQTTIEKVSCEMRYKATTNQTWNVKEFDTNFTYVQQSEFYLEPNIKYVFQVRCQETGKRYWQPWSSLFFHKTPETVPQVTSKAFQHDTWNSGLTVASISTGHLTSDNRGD
Experimental Protocol: SPR (Biacore), captured IL-23R/Fc, ATRIMER
Observed Property: Kd (nM)
Form entry: value (nM) — number only.

The following binders have reported results that may help.
4G8 ATRIMER (designed binder, Forms a homotrimer through the tetranectin coiled coil; one protomer is given., made in E. coli; also called 001-69.4G8; ATRIMER complex 4G8) EPPTQKPKKIVNAKKDVVNTKMFEELKSRLDTLAQEVALLKEQQALQTVCLKGTKVHMKCFLAFTQTKTFHEASEDCISRGGTLSTPQTGSENDALYEYLRQSVGNEAEIWLGLNGSRRSGVWVDMTGARIAYKNWETEITAQPDGGFGVFGENCAVLSGAANGKWFDKRCRDQLPYICQFGIV | 7.42
105-20-2A3 ATRIMER (designed binder, not shown: C-terminal tag: Myc/His6 (pANA4) or HA-StrepII (pANA10); A Ser left at the ompA junction may also sit at the N-terminus) EPPTQKPKKIVNAKKDVVNTKMFEELKSRLDTLAQEVALLKEQQALQTVCLKGTKVHMKCFLAFTQTKTFHEASEDCISRGGTLSTPQTGSENDALYEYLRQSVGNEAEIWLGLNGSPITNTWVDMTGARIAYKNWETEITAQPDGGFGYFGENCAVLSGAANGKWFDKRCRDQLPYICQFGIV | 0.759
A4A ATRIMER (designed binder, Forms a homotrimer through the tetranectin coiled coil; one protomer is given., also called 001-87.A4A) EPPTQKPKKIVNAKKDVVNTKMFEELKSRLDTLAQEVALLKEQQALQTVCLKGTKVHMKCFLAFTQTKTFHEASEDCISRGGTLSTPQTGSENDALYEYLRQSVGNEAEIWLGLNWTLAKNLWVDMTGARIAYKNWETEITAQPDGGLFGRGENCAVLSGAANGKWFDKRCRDQLPYICQFGIV | 8.08
B9B ATRIMER (designed binder, Forms a homotrimer through the tetranectin coiled coil; one protomer is given., also called 056-41.B9B) EPPTQKPKKIVNAKKDVVNTKMFEELKSRLDTLAQEVALLKEQQALQTVCLKGTKVHMKCFLAFTQTKTFHEASEDCISRGGTLSTPQTGSENDALYEYLRQSVGNEAEIWLGLNAPPDLGLWVDMTGARIAYKNWETEITAQPDGGWGVWGENCAVLSGAANGKWFDKRCRDQLPYICQFGIV | 5.15
105-20-2F12 ATRIMER (designed binder, not shown: C-terminal tag: His/Myc (pANA4) or HA-StrepII (pANA10)) EPPTQKPKKIVNAKKDVVNTKMFEELKSRLDTLAQEVALLKEQQALQTVCLKGTKVHMKCFLAFTQTKTFHEASEDCISRGGTLSTPQTGSENDALYEYLRQSVGNEAEIWLGLNGSKLTDTWVDMTGARIAYKNWETEITAQPDGGFGYFGENCAVLSGAANGKWFDKRCRDQLPYICQFGIV | 1.85

Query string: Give the measured Kd for 101-113-6C102 ATRIMER (designed binder, ATRIMER is a homotrimer; one protomer is given., not shown: C-terminal purification tag: Myc/His6 (pANA4) or HA-StrepII (pANA10)) EPPTQKPKKIVNAKKDVVNTKMFEELKSRLDTLAQEVALLKEQQALQTVCLKGTKVHMKCFLAFTQTKTFHEASEDCISRGGTLSTPQTGSENDALYEYLRQSVGNEAEIWLGLNGSNVTQTWVDMTGARIAYKNWEPPPPHHPQGGFGVFGENCAVLSGAANGKWFDKRCRDQLPYICQFGIV
Result string: 1.04

Query string: Find the measured Kd of A9E ATRIMER (designed binder) EPPTQKPKKIVNAKKDVVNTKMFEELKSRLDTLAQEVALLKEQQALQTVCLKGTKVHMKCFLAFTQTKTFHEASEDCISRGGTLSTPQTGSENDALYEYLRQSVGNEAEIWLGLNGSALTNTWVDMTGARIAYKNWETEITAQPDGGLGYWGENCAVLSGAANGKWFDKRCRDQLPYICQFGIV and report it.
Result string: 1.92

Query string: Look up and state reported Kd for 105-08-1A3 ATRIMER (designed binder, not shown: C-terminal tag: Myc/His6 (pANA4) or HA-StrepII (pANA10); A Ser left at the ompA junction may also sit at the N-terminus) EPPTQKPKKIVNAKKDVVNTKMFEELKSRLDTLAQEVALLKEQQALQTVCLKGTKVHMKCFLAFTQTKTFHEASEDCISRGGTLSTPQTGSENDALYEYLRQSVGNEAEIWLGLNGSPRTDTWVDMTGARIAYKNWETEITAQPDGGWGVFGENCAVLSGAANGKWFDKRCRDQLPYICQFGIV
Result string: 0.473
